The reported measurements were obtained from patent US12492188B2.

- study.system: human TLR7 (Homo sapiens, UniProt Q9NYK1)
- Sequence (Q9NYK1 27-1049): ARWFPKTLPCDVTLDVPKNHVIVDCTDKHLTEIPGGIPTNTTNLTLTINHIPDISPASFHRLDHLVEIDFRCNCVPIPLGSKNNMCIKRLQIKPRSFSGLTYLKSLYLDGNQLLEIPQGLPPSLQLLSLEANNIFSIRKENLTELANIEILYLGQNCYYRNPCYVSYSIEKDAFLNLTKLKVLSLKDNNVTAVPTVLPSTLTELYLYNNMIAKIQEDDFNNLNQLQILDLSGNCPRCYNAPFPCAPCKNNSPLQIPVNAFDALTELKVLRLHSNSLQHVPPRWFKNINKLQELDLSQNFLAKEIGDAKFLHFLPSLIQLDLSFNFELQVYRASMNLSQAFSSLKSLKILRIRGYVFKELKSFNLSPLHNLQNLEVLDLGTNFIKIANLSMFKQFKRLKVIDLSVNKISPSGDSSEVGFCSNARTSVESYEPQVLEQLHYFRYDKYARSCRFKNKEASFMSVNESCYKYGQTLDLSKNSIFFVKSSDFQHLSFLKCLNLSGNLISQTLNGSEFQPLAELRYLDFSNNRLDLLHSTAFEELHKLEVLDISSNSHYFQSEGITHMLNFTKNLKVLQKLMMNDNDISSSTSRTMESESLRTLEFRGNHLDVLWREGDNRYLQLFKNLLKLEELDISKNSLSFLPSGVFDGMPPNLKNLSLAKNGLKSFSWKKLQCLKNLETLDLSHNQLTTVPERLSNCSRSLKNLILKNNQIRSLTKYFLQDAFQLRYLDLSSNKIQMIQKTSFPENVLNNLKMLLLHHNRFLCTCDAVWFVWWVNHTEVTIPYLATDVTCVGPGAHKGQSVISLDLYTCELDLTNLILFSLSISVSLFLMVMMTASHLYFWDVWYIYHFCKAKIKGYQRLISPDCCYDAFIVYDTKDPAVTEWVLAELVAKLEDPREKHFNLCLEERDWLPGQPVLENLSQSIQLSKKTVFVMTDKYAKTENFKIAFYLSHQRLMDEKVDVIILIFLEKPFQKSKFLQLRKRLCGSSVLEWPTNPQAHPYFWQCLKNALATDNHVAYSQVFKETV
- assay.name: TLR7 inhibition reporter assay (HEK-Blue cells, secreted embryonic alkaline phosphatase reporter)
- test.parameters: HEK-Blue cells overexpressing human TLR7, stimulated with gardiquimod 7.5 μM; read-out: TLR 7 IC50
metric.name: log10 IC50 (log10 of the value in µM)

molecule | study.system | reported.measurement
Cc1cc(C2CCN(C3CCCN(C4COC4)CC3)CC2)cc2c1nc(-c1ccc(S(C)(=O)=O)cc1)n2C (stereo not shown) [Example 304] | human TLR7 (Homo sapiens, UniProt Q9NYK1) | 1.09
Cc1cc(-c2ccc(CN3CCC(N4CCCC4)CC3)cc2)cc2c1nc(-c1ccc(S(C)(=O)=O)cc1)n2C1CC1 | human TLR7 (Homo sapiens, UniProt Q9NYK1) | 0.15
Cn1c(-c2ccc(S(C)(=O)=O)cc2)nc2ccc(C3CCN(C4CCN(C5CC5)CC4)CC3)c(F)c21 | human TLR7 (Homo sapiens, UniProt Q9NYK1) | 1.33
CC(C)N1CCC(N2CCC(c3ccc4nc(-c5ccc(S(C)(=O)=O)cc5)n(C)c4c3F)CC2)CC1 | human TLR7 (Homo sapiens, UniProt Q9NYK1) | 0.99
CCOP(=O)(OCC)c1ccc(-c2nc3c(C)cc(C4CCN(C5CCN(C6CC6)CC5)CC4)cc3n2C)cc1 | human TLR7 (Homo sapiens, UniProt Q9NYK1) | 0.60
